- assaySystem: cyno c-Kit (SPR) (cyno, UniProt F6V858 26-520 (rhesus entry))
- Sequence (chain, as listed by the source): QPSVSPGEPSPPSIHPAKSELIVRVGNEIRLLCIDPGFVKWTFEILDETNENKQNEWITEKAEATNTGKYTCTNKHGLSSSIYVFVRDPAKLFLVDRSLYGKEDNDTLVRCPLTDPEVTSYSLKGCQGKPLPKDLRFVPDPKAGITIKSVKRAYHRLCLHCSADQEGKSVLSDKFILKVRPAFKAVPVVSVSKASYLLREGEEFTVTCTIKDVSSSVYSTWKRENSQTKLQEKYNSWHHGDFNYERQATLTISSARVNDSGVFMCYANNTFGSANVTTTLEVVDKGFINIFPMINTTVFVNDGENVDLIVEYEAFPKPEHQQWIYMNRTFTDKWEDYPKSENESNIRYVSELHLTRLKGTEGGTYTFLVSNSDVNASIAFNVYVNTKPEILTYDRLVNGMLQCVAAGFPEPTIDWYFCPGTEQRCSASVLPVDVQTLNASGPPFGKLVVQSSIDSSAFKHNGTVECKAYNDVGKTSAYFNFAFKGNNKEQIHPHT
- method: SPR, single-cycle kinetics, Cynomolgus C-kit
measurementKind: kon (M⁻¹ s⁻¹)
Just the number in M⁻¹ s⁻¹, nothing appended.

- binder: "FJ2156_MH1_C x F6_12B huIgG1 KIH (bispecific antibody, V domains shown, also called MH1_C/F6.12_B) VH 1: QVQLVQSGAEVKEPGASVKVSCKASGYTFTDYYMNWVRQAPGQGLEWMGRIYPGSGNTYYAQNFQGRVTMTRDTSTSTVYMELSSLRSEDTAVYYCARGVYYYDYWGQGTLVTVSS VH 2: QVQLVQSGAEVKKPGESLKISCKGSGYRFASNWIGWVRQMPGKGLQWMGEIYPGDSNTRYSPSFQGQVTISADKSISTAYLQWSSLKASDTAMYYCARKDYYYGIMDVWGQGTTVTVSS VL: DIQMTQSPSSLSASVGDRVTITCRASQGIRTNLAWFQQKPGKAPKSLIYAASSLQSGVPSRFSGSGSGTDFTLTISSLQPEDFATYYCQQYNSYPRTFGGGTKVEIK"
  unitAnnotation: "M⁻¹ s⁻¹"
  kon: 295000

# ---- query binder ----
Request: Return the recorded kon value; entry: FJ2156_MH1_A x F6_12B huIgG1 KIH (bispecific antibody, V domains shown, also called MH1_A/F6.12_B) VH 1: EVQLVQSGAEVKKPGASVKVSCKASGYTFTDYYMNWVRQAPGQGLEWMGRIYPGSGNTYYAQKFQDRVTMTRDTSTSTVYMELSSLRSEDTAVYYCARGVYYYDYWGQGTLVTVSS VH 2: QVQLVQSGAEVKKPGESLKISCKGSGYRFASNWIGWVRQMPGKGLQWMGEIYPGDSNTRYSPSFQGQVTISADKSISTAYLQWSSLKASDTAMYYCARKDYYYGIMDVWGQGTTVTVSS VL: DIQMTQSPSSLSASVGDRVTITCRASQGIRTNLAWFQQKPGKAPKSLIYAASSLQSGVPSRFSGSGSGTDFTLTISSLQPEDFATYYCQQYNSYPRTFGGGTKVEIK
Result: 291000
